B1: VH:VL chains; a variant is named by its letters at X, in order (parent)
chain 1: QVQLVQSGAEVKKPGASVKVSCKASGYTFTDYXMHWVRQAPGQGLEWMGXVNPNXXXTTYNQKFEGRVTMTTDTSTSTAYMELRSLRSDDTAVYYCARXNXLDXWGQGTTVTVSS
chain 2: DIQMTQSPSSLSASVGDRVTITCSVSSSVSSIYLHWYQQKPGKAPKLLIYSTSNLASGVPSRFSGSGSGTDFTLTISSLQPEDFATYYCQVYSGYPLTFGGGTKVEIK

# Variants of: B1
# ASSAY PROTOCOL: yeast display scFab, FACS + sequencing
REPORTED ENDPOINT: non-specific binding call

Known non-specific binding call results, listed for orientation:
mutation_notation=AGKGGFAY result=binds
mutation_notation=DATGGSSS result="no binding"
mutation_notation=AARADDSA result="no binding"
mutation_notation=VEAGDDAA result="no binding"
mutation_notation=YRERGAVV result=binds
mutation_notation=FRGKGAGY result=binds

Query: I would be grateful if you could share the reported non-specific binding call for `ATTKSAGD` .
Reply: no binding

Query: I would be grateful if you could share the reported non-specific binding call for `AEEEGSAA` .
Reply: no binding

Query: I would be grateful if you could share the reported non-specific binding call for `YKRESSSV` .
Reply: binds

Query: I would be grateful if you could share the reported non-specific binding call for `YRAGGFGY` .
Reply: binds
